# targetUnderTest: Prostaglandin E synthase (Homo sapiens, UniProt O14684)
# Sequence (O14684 whole entry): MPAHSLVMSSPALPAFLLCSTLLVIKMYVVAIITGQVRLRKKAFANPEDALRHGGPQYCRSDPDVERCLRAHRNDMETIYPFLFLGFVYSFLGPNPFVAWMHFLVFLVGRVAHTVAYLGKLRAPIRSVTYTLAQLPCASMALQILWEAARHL
# methodDescription: Inhibition of microsomal PGES1 (unknown origin)
# assayConditions: read-out: IC50
measurementType: IC50 (nM)
Field: numeric (nM). Do not append units.

O=C(Nc1cccc2ccccc12)c1cccc(NC(=O)c2ccccc2Cl)c1
200

Query compound follows.
I am curious: what IC50 value has been reported for Cc1ccc(C)c(-c2cc(C(F)(F)F)nn2-c2ccc(S(N)(=O)=O)cc2)c1 [DIMETHYL CELECOXIB] ?
600

The reported measurements were obtained from ChEMBL document CHEMBL3769386.
